system: 126254-015-R-J1-PDC complex spheroid growth, % test/control; assay: Anticancer human tumor 126254-015-R-J1-PDC patient-derived soft tissue sarcoma cell line growth inhibition [Asc]; settings: second compound 0.1 µM; first compound 0.1 µM; stronger effect = lower value
Property Measured: viability, T/C (%)

- Compound: "Cn1ncnc1[C@H]1c2n[nH]c(=O)c3cc(F)cc(c23)N[C@@H]1c1ccc(F)cc1 + CNC(C)C(=O)NC1CN(S(=O)(=O)c2cccc(S(=O)(=O)N3CCC4CCC(C(=O)NC(c5ccccc5)c5ccccc5)N4C(=O)C(NC(=O)C(C)NC)C3)c2)CCC2CCC(C(=O)NC(c3ccccc3)c3ccccc3)N2C1=O"
  Value Reported: 44.7
- Compound: "C#Cc1c(F)ccc2cc(O)cc(-c3ncc4c(N5CC6CCC(C5)N6)nc(OCC56CCCN5CC(F)C6)nc4c3F)c12 (stereo not drawn) + CNC(C)C(=O)NC1CN(S(=O)(=O)c2cccc(S(=O)(=O)N3CCC4CCC(C(=O)NC(c5ccccc5)c5ccccc5)N4C(=O)C(NC(=O)C(C)NC)C3)c2)CCC2CCC(C(=O)NC(c3ccccc3)c3ccccc3)N2C1=O"
  Value Reported: 62.4
- Compound: "COc1c(OCCCN2CCOCC2)ccc2c3n(c(=NC(=O)c4cnc(N)nc4)nc12)CCN3 + CNC(C)C(=O)NC1CN(S(=O)(=O)c2cccc(S(=O)(=O)N3CCC4CCC(C(=O)NC(c5ccccc5)c5ccccc5)N4C(=O)C(NC(=O)C(C)NC)C3)c2)CCC2CCC(C(=O)NC(c3ccccc3)c3ccccc3)N2C1=O"
  Value Reported: 36

* * *

tested on: 126254-015-R-J1-PDC complex spheroid growth, % test/control; experiment: Anticancer human tumor 126254-015-R-J1-PDC cell line growth inhibition [Asc]; conditions: second compound 1 µM; first compound 0.316 µM; stronger effect = lower value;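 also: spheroids exposed to compound for seven days; 100% = DMSO vehicle control wells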

- Compound: "CNC(C)C(=O)NC1CN(S(=O)(=O)c2cccc(S(=O)(=O)N3CCC4CCC(C(=O)NC(c5ccccc5)c5ccccc5)N4C(=O)C(NC(=O)C(C)NC)C3)c2)CCC2CCC(C(=O)NC(c3ccccc3)c3ccccc3)N2C1=O (configuration not stated) + Cc1c(S(C)(=O)=O)c(-c2cc(F)cc(N3CCN(c4ccc(NS(=O)(=O)c5ccc(NC(CCN6CCC(C(=O)OCCCP(=O)(O)O)CC6)CSc6ccccc6)c(S(=O)(=O)C(F)(F)F)c5)cc4)CC3)c2)c(-c2ccc(Cl)cc2)n1C(C)C"
  Unit Symbol: "%"
  viability, T/C: 46.9
- Compound: "O=C(c1ccc(F)c(F)c1Nc1ccc(I)cc1F)N1CC(O)([C@@H]2CCCCN2)C1 + CNC(C)C(=O)NC1CN(S(=O)(=O)c2cccc(S(=O)(=O)N3CCC4CCC(C(=O)NC(c5ccccc5)c5ccccc5)N4C(=O)C(NC(=O)C(C)NC)C3)c2)CCC2CCC(C(=O)NC(c3ccccc3)c3ccccc3)N2C1=O"
  Unit Symbol: "%"
  viability, T/C: 27

* * *

Listed compounds paired with reported viability, T/C
test system: 126254-015-R-J1-PDC complex spheroid growth, % test/control; assay: Anticancer human tumor 126254-015-R-J1-PDC cell line growth inhibition [Asc]; conditions: second compound 10 µM; first compound 0.00316 µM; stronger effect = lower value;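 also: spheroids exposed to compound for seven days; 100% = DMSO vehicle control wells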

- Compound: "CNC(C)C(=O)NC1CN(S(=O)(=O)c2cccc(S(=O)(=O)N3CCC4CCC(C(=O)NC(c5ccccc5)c5ccccc5)N4C(=O)C(NC(=O)C(C)NC)C3)c2)CCC2CCC(C(=O)NC(c3ccccc3)c3ccccc3)N2C1=O (stereo unspecified) + Cc1c(S(C)(=O)=O)c(-c2cc(F)cc(N3CCN(c4ccc(NS(=O)(=O)c5ccc(NC(CCN6CCC(C(=O)OCCCP(=O)(O)O)CC6)CSc6ccccc6)c(S(=O)(=O)C(F)(F)F)c5)cc4)CC3)c2)c(-c2ccc(Cl)cc2)n1C(C)C"
  Study System: "126254-015-R-J1-PDC complex spheroid growth, % test/control"
  viability, T/C, %: 80.2
- Compound: "O=C(c1ccc(F)c(F)c1Nc1ccc(I)cc1F)N1CC(O)([C@@H]2CCCCN2)C1 + Cc1c(S(C)(=O)=O)c(-c2cc(F)cc(N3CCN(c4ccc(NS(=O)(=O)c5ccc(NC(CCN6CCC(C(=O)OCCCP(=O)(O)O)CC6)CSc6ccccc6)c(S(=O)(=O)C(F)(F)F)c5)cc4)CC3)c2)c(-c2ccc(Cl)cc2)n1C(C)C"
  Study System: "126254-015-R-J1-PDC complex spheroid growth, % test/control"
  viability, T/C, %: 90.1
- Compound: "NC1CCC(NC2CC2c2ccccc2)CC1 (stereo unspecified) + Cc1c(S(C)(=O)=O)c(-c2cc(F)cc(N3CCN(c4ccc(NS(=O)(=O)c5ccc(NC(CCN6CCC(C(=O)OCCCP(=O)(O)O)CC6)CSc6ccccc6)c(S(=O)(=O)C(F)(F)F)c5)cc4)CC3)c2)c(-c2ccc(Cl)cc2)n1C(C)C"
  Study System: "126254-015-R-J1-PDC complex spheroid growth, % test/control"
  viability, T/C, %: 70.4
- Compound: "CCN1CCN(Cc2ccc(Nc3ncc(F)c(-c4cc(F)c5nc(C)n(C(C)C)c5c4)n3)nc2)CC1 + Cc1c(S(C)(=O)=O)c(-c2cc(F)cc(N3CCN(c4ccc(NS(=O)(=O)c5ccc(NC(CCN6CCC(C(=O)OCCCP(=O)(O)O)CC6)CSc6ccccc6)c(S(=O)(=O)C(F)(F)F)c5)cc4)CC3)c2)c(-c2ccc(Cl)cc2)n1C(C)C"
  Study System: "126254-015-R-J1-PDC complex spheroid growth, % test/control"
  viability, T/C, %: 86.5
- Compound: "COc1c(OCCCN2CCOCC2)ccc2c3n(c(=NC(=O)c4cnc(N)nc4)nc12)CCN3 + Cc1c(S(C)(=O)=O)c(-c2cc(F)cc(N3CCN(c4ccc(NS(=O)(=O)c5ccc(NC(CCN6CCC(C(=O)OCCCP(=O)(O)O)CC6)CSc6ccccc6)c(S(=O)(=O)C(F)(F)F)c5)cc4)CC3)c2)c(-c2ccc(Cl)cc2)n1C(C)C"
  Study System: "126254-015-R-J1-PDC complex spheroid growth, % test/control"
  viability, T/C, %: 84.2
- Compound: "Cn1ncnc1[C@H]1c2n[nH]c(=O)c3cc(F)cc(c23)N[C@@H]1c1ccc(F)cc1 + Cc1c(S(C)(=O)=O)c(-c2cc(F)cc(N3CCN(c4ccc(NS(=O)(=O)c5ccc(NC(CCN6CCC(C(=O)OCCCP(=O)(O)O)CC6)CSc6ccccc6)c(S(=O)(=O)C(F)(F)F)c5)cc4)CC3)c2)c(-c2ccc(Cl)cc2)n1C(C)C"
  Study System: "126254-015-R-J1-PDC complex spheroid growth, % test/control"
  viability, T/C, %: 77.7

Data provenance: PubChem BioAssay AID1963429
